Some molecules, each annotated with its measured H3R2UN: K4UN, % of peptide pool.
- Test system: histone modifications in 2102EP cells
- Procedure details: Mass spectrometry analysis of histone modifications (Mod Spec)
- Assay type: cell-based, Human
- Experimental context: 2102EP cells; Mod Spec raw data
# value in %; strip the unit string

// known answers, use as guide
Cc1ncsc1-c1ccc(CNC(=O)[C@@H]2C[C@@H](O)CN2C(=O)[C@@H](NC(=O)COCCOCCOCCNC(=O)C[C@@H]2N=C(c3ccc(Cl)cc3)c3c(sc(C)c3C)-n3c(C)nnc32)C(C)(C)C)cc1 83.0582
Clc1ccc(N/N=C(\c2ccccc2)c2ccccn2)nc1 81.8781
Cc1cc(=O)n(C)c2cc(N3C(=O)CC[C@H](NS(=O)(=O)CC(C)C)[C@H]3c3ccc(Cl)cc3)ccc12 82.3733
CN1C(=O)[C@@]23C[C@]4([C@]56C[C@@]78SS[C@@](CO)(C(=O)N7[C@H]5Nc5ccccc56)N(C)C8=O)c5ccccc5N[C@@H]4N2C(=O)[C@]1(CO)SS3 81.8281
CCCc1cc(C)[nH]c(=O)c1CNC(=O)c1cc(-c2ccnc(N3CCN(C)CC3)c2)cc2c1cnn2C(C)C 81.2835
Cn1cc(CNCC2CCN(c3ncc(C(=O)NO)cn3)CC2)c2ccccc21 75.9587

Task item: Input O=C1C(=Cc2cccnc2)C(=O)c2ccccc21 , output reported H3R2UN: K4UN, % of peptide pool.
Reply: 81.2822

====

- Test system: TCam-2 (SE)
- Procedure details: XTT cell viability assay, TCam-2
- Format: cell-based
- Experimental context: Homo sapiens; after 48 h, XTT, n = 4; read-out: EC50 colour/symbol code, SE TCam-2
Recorded metric: EC50

// known answers, use as guide
Compound	System	EC50
COc1cc(-c2cn(C)c(=O)c3cnccc23)c(OC)cc1CN(C)C	TCam-2 (SE)	> 50 µM
CCCc1cc(C)[nH]c(=O)c1CNC(=O)c1cc(-c2ccnc(N3CCN(C)CC3)c2)cc2c1cnn2C(C)C	TCam-2 (SE)	1 to 50 µM
COc1cc(-c2cn(C)c(=O)c3cnccc23)cc(OC)c1CN1CCN(CCCCCOc2cc(-c3scnc3C)ccc2CNC(=O)[C@@H]2C[C@@H](O)CN2C(=O)[C@@H](NC(=O)C2(F)CC2)C(C)(C)C)CC1	TCam-2 (SE)	1 to 50 µM
O=C(O)C1=CC(=C(c2ccc(O)c(C(=O)O)c2)c2ccc(O)c(C(=O)O)c2)C=CC1=O	TCam-2 (SE)	> 50 µM
NC(=O)c1cccnc1 [Nicotinamide]	TCam-2 (SE)	> 50 µM

Task item: Quote EC50 with test system TCam-2 (SE) for Cn1cc(CNCC2CCN(c3ncc(C(=O)NO)cn3)CC2)c2ccccc21
Reply: < 1 µM

Task item: Quote EC50 with test system TCam-2 (SE) for O=C(O)c1ccc(CN2CCC(CN[C@@H]3C[C@H]3c3ccccc3)CC2)cc1
Reply: > 50 µM

====

- Test system: histone modifications in 2102EP cells
- Procedure details: Mass spectrometry analysis of histone modifications (Mod Spec)
- Assay type: cell-based, Human
- Experimental context: 2102EP cells; Mod Spec raw data
Some compounds, each annotated with its measured H3: K79AC, % of peptide pool.
# value in %; strip the unit string

// known answers, use as guide
Cc1ncsc1-c1ccc(CNC(=O)[C@@H]2C[C@@H](O)CN2C(=O)[C@@H](NC(=O)COCCOCCOCCNC(=O)C[C@@H]2N=C(c3ccc(Cl)cc3)c3c(sc(C)c3C)-n3c(C)nnc32)C(C)(C)C)cc1 0.05432
O=C1C(=Cc2cccnc2)C(=O)c2ccccc21 3.311

Below: the item to evaluate.
Task item: Quote H3: K79AC, % of peptide pool with test system histone modifications in 2102EP cells for Cc1cc(=O)n(C)c2cc(N3C(=O)CC[C@H](NS(=O)(=O)CC(C)C)[C@H]3c3ccc(Cl)cc3)ccc12
Reply: 0.6828

Where do the numbers come from? From paper PMC8742467.
